System: DNA
test_description: Induction of DNA damage in Escherichia coli pBR322 DNA assessed as open circular DNA irradiated with 7.5 J/cm^2 UV light dose relative to control
Format: nucleic-acid assay
outcome_measure: Activity (%)
The figure you give is taken to be in %; do not add the unit.

Identify Activity associated with the compound CCOC(=O)c1ccc2n1CCCc1cnc(NC3CCCCC3)nc1-2 23.9

Identify Activity associated with the compound CC(C)OC(=O)c1ccc2n1CCCc1cnc(NC3CCCCC3)nc1-2 49.5

Identify Activity associated with the compound CCOC(=O)c1ccc2n1CCc1cnc(NC3CCCCC3)nc1-2 21.6

Identify Activity associated with the compound CC(C)OC(=O)c1ccc2n1CCc1cnc(NC3CCCCC3)nc1-2 40.3

###

System: DNA
test_description: Induction of DNA damage in Escherichia coli pBR322 DNA assessed as open circular DNA relative to control
Format: nucleic-acid assay
outcome_measure: Activity (%)
The figure you give is taken to be in %; do not add the unit.

Identify Activity associated with the compound CC(C)OC(=O)c1ccc2n1CCc1cnc(NC3CCCCC3)nc1-2 18.7

Identify Activity associated with the compound CCOC(=O)c1ccc2n1CCCc1cnc(NC3CCCCC3)nc1-2 13.8

Identify Activity associated with the compound CCOC(=O)c1ccc2n1CCc1cnc(NC3CCCCC3)nc1-2 16.6

Identify Activity associated with the compound CC(C)OC(=O)c1ccc2n1CCCc1cnc(NC3CCCCC3)nc1-2 38.5

###

Provide the reported Activity of each item.
Test system: DNA
test_description: Induction of DNA damage in Escherichia coli pBR322 DNA assessed as supercoiled DNA irradiated with 7.5 J/cm^2 UV light dose relative to control
Assay type: nucleic-acid assay
The figure you give is taken to be in %; do not add the unit.

Identify Activity associated with the molecule CC(C)OC(=O)c1ccc2n1CCCc1cnc(NC3CCCCC3)nc1-2 50.5

Identify Activity associated with the molecule CCOC(=O)c1ccc2n1CCc1cnc(NC3CCCCC3)nc1-2 78.4

Identify Activity associated with the molecule CC(C)OC(=O)c1ccc2n1CCc1cnc(NC3CCCCC3)nc1-2 59.7

Identify Activity associated with the molecule CCOC(=O)c1ccc2n1CCCc1cnc(NC3CCCCC3)nc1-2 76.1

###

Tested on: DNA
test_description: Induction of DNA damage in Escherichia coli pBR322 DNA assessed as supercoiled DNA relative to control
Type: nucleic-acid assay
Provide the reported Activity of each item.
The figure you give is taken to be in %; do not add the unit.

Identify Activity associated with the compound CCOC(=O)c1ccc2n1CCCc1cnc(NC3CCCCC3)nc1-2 86.2

Identify Activity associated with the compound CC(C)OC(=O)c1ccc2n1CCCc1cnc(NC3CCCCC3)nc1-2 61.5

Identify Activity associated with the compound CCOC(=O)c1ccc2n1CCc1cnc(NC3CCCCC3)nc1-2 83.4

Identify Activity associated with the compound CC(C)OC(=O)c1ccc2n1CCc1cnc(NC3CCCCC3)nc1-2 81.3

###

test_description: Selectivity index, ratio of IC50 for dark toxicity against human MDA-MB-231 cells to IC50 for phototoxicity against human MDA-MB-231 cells irradiated with 2 J/cm^2 of light dose
Format: cell-based
details: read-out: Ratio IC50
Provide the reported selectivity ratio of each item.

Identify selectivity ratio associated with the compound CC(C)OC(=O)c1ccc2n1CCc1cnc(N)nc1-2 0.8

Identify selectivity ratio associated with the compound c1cc2n(c1)CCc1cnc(NC3CCCCC3)nc1-2 > 16.7

Identify selectivity ratio associated with the compound CCOC(=O)c1ccc2n1CCCc1cnc(Nc3ccccc3)nc1-2 > 9.2

Identify selectivity ratio associated with the compound Nc1ncc2c(n1)-c1cccn1CC2 > 7.3

Identify selectivity ratio associated with the compound c1ccc(Nc2ncc3c(n2)-c2cccn2CC3)cc1 > 9

Identify selectivity ratio associated with the compound CCOC(=O)c1ccc2n1CCc1cnc(NC3CCCCC3)nc1-2 2.1

Identify selectivity ratio associated with the compound CCOC(=O)c1ccc2n1CCCc1cnc(NC3CCCCC3)nc1-2 12.1

Identify selectivity ratio associated with the compound CC(=O)Nc1ncc2c(n1)-c1ccc(C(=O)OC(C)C)n1CC2 > 3.8

Identify selectivity ratio associated with the compound CCOC(=O)c1ccc2n1CCCc1cnc(NC(C)=O)nc1-2 19.1

Identify selectivity ratio associated with the compound CC(C)OC(=O)c1ccc2n1CCCc1cnc(Nc3ccccc3)nc1-2 > 3.5

Identify selectivity ratio associated with the compound CC(C)OC(=O)c1ccc2n1CCCc1cnc(NC3CCCCC3)nc1-2 > 13.3

Identify selectivity ratio associated with the compound CC(C)OC(=O)c1ccc2n1CCc1cnc(NC3CCCC3)nc1-2 > 3.7
